In this section we review reported IC50 values for a set of molecules.
# Tested on: HL-60
# protocol_text: Antiproliferative activity against human HL60 cells
# Assay type: functional, cell-based

In [3]: df
Out[3]:
                        structure_as_smiles  tested_system  observed_measurement
0          CCOC(=O)c1ccc(Oc2ccc(OC)cc2)cc1O          HL-60               > 30 µM
1  COC(=O)c1ccc(Oc2ccc(OC)cc2)c([N+](=O)[O-])c1          HL-60               > 20 µM

Ask: Quick check: IC50 on HL-60, item CCOC(=O)c1ccc(Oc2ccc(N(C)C)cc2)cc1 ?
Reply: > 20 µM

Ask: Can you check CCOC(=O)c1ccc(Oc2ccc(OC)c(F)c2)cc1O next?
Reply: > 30 µM

Ask: Follow-up entry: CCOC(=O)c1ccc(Oc2ccc(N(C)C)cc2)cc1O
Reply: > 30 µM

Ask: Input CCOC(=O)c1ccc(Oc2ccc(OC)c(F)c2)cc1
Reply: 3.5 µM

Ask: // next record CCOC(=O)c1ccc(Oc2ccc(OC)c(OC)c2)cc1
Reply: > 20 µM

Ask: Now give it for COC(=O)c1cccc(Oc2ccc(N(C)C)cc2)c1 too.
Reply: > 20 µM

Ask: Queued: COc1ccc(Oc2ccc(C(=O)O)cc2)cc1F
Reply: > 30 µM

Ask: Queued: CCOC(=O)c1ccc(Oc2ccc(F)c(F)c2)cc1
Reply: > 30 µM

Ask: // same read-out, input: COc1ccc(S(=O)(=O)Nc2cccnc2Nc2ccc(O)cc2)cc1
Reply: 0.34 µM

* * *

# Test system: HL-60
# protocol_text: Antiproliferative activity against human HL60 cells
# Assay type: functional, cell-based
value_kind: IC50

In [3]: df
Out[3]:
                        structure_as_smiles  value_kind  observed_measurement
0           CCOC(=O)c1ccc(Oc2ccc(Cl)cc2)cc1        IC50               > 20 µM
1  COC(=O)c1ccc(Oc2ccc(OC)c(OC)c2)c([N+](=O)[O-])c1        IC50               > 20 µM
2         COC(=O)c1ccc(Oc2ccc(OC)cc2)c(N)c1        IC50               > 20 µM
3       COc1ccc(Oc2ccc(C(=O)N(C)OC)cc2)cc1F        IC50               > 30 µM

Ask: // IC50 lookup, key: COc1ccc(Oc2ccc(C(=O)NC3CC3)cc2)cc1F
Reply: 14.1 µM

Ask: Record: CCOC(=O)c1ccc(Oc2ccc(OC)c(OC)c2)cc1O
Reply: 1.5 µM

* * *

The entries below come with measured IC50 values attached.
# System: HL-60
# protocol_text: Antiproliferative activity against human HL60 cells
# Format: functional, cell-based

Worked cases, answers included:
In [3]: df
Out[3]:
                     structure_as_smiles  tested_system  observed_measurement
0  COC(=O)c1ccc(Oc2ccc(OC)c(OC)c2)c(I)c1          HL-60               5.62 µM
1           COc1ccc(Oc2c(OC)cccc2OC)cc1F          HL-60               > 20 µM
2         COC(=O)c1cccc(Oc2ccc(OC)cc2)c1          HL-60               > 20 µM
3           COc1cccc(OC)c1Oc1ccc(C#N)cc1          HL-60               > 20 µM
4      COC(=O)c1ccc(Oc2ccc(OC)cc2)c(I)c1          HL-60               > 20 µM

# next compound below
Ask: What value of IC50 has been recorded for this entry: COc1ccc(Oc2ccc(C(=O)NCCc3ccccc3)cc2)cc1F
Reply: 20.6 µM

* * *

The entries below are paired with their reported inhibition.
# tested_system: Tubulin (Homo sapiens) (UniProt P68371+Q9H4B7+P0DPH7+P68366+Q13509+Q71U36+P04350+Q3ZCM7+P07437+P68363+Q9BQE3+Q6PEY2+Q13885+Q9BVA1+Q9BUF5)
# protocol_text: Inhibition of tubulin polymerization at 10 ug/ml
# Type: protein-complex assay
Number in %, nothing else.

Solved entries:
>>> print(df.to_string())
                               molecule  value_unit  observed_measurement
0   COc1ccc(Oc2ccc(C(=O)NC3CC3)cc2)cc1F           %                   8.7
1        COc1cccc(OC)c1Oc1ccc(N(C)C)cc1           %                  12.5
2  CCOC(=O)c1ccc(Oc2ccc(OC)c(OC)c2)cc1O           %                   5.5

Ask: Any idea what its inhibition is? The molecule is CCOC(=O)c1ccc(Oc2ccc(OC)c(F)c2)cc1
Reply: 12.5

Ask: Same read-out for COc1ccc(S(=O)(=O)Nc2cccnc2Nc2ccc(O)cc2)cc1 [ABT-751] ?
Reply: 96.3

* * *

# System: HL-60
# protocol_text: Antiproliferative activity against human HL60 cells
# Type: functional, cell-based
pIC50: −log10 of the molar value.
value_kind: pIC50

Solved cases below.
               structure_as_smiles  value_kind  observed_measurement
0  CCOC(=O)c1ccc(Oc2ccc(OC)cc2)cc1       pIC50                < 4.70
1   COc1cccc(OC)c1Oc1ccc(N(C)C)cc1       pIC50                  4.94

Ask: Using the record for CCOC(=O)c1ccc(Oc2ccc(F)c(F)c2)cc1O , report its pIC50.
Reply: < 4.52

Ask: Record: COC(=O)c1cccc(Oc2ccc(OC)c(F)c2)c1
Reply: < 4.70

Ask: Further, for COC(=O)c1ccc(Oc2ccc(OC)c(OC)c2)c(N)c1 ?
Reply: < 4.70

Ask: Could you do the same for COC(=O)c1cccc(Oc2ccc(C#N)cc2)c1 , please?
Reply: < 4.70

Ask: Please answer likewise for CCOC(=O)c1ccc(Oc2ccc(C#N)cc2)cc1
Reply: < 4.70

These data points were gathered from ChEMBL document CHEMBL1139136.
